Molecular target: Jurkat cells expressing CXCR4 (Homo sapiens)
Construct: endogenous in cells; host or cells: Jurkat
Sequence (P61073 whole entry): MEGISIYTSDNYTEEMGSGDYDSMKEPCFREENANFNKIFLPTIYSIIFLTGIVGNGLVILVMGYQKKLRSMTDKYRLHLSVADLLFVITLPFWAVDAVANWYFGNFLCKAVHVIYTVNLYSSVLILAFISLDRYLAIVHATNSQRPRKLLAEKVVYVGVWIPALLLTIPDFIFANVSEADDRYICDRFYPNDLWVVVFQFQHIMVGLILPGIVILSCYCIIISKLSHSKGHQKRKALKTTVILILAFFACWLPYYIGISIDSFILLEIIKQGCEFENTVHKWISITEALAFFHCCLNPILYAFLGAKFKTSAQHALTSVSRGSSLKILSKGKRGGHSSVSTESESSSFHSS
Test: Chemokine (CXCL12-AF647) binding inhibition assay
Details: CXCL12-AF647 25 ng/mL, read-out: IC50 CXCL-12 binding Jurkat
pIC50: −log10 of the molar value.
Give pIC50 for every item shown.

Below, each entry is followed by its recorded pIC50 result.
- COMPOUND: "Cc1cccnc1[C@@H]1CCC[C@H](c2nccn2CCn2cccn2)N1 [I-176]"
  TARGET_SYSTEM: "Jurkat cells expressing CXCR4 (Homo sapiens)"
  pIC50: "≤ 6.00"
- COMPOUND: "COCCCn1c([C@H]2CCC[C@@H](c3ncccc3C)N2C)nc2ccccc21 [I-157]"
  TARGET_SYSTEM: "Jurkat cells expressing CXCR4 (Homo sapiens)"
  pIC50: "7.00 to 11.00"
- COMPOUND: "Cc1cccnc1[C@@H]1CCC[C@H](c2nc3ccccc3n2CCCN2CCN(C)CC2)N1C [I-17]"
  TARGET_SYSTEM: "Jurkat cells expressing CXCR4 (Homo sapiens)"
  pIC50: "7.00 to 11.00"

Record pIC50 for all entries; do not skip any.
1. Cc1cccnc1[C@@H]1CCC[C@H](c2nc3cccc(C4CCN(C)CC4)c3[nH]2)N1C [I-34]
2. Cc1cccnc1[C@@H]1CCC[C@H](c2nc3cccc(N4CCN(C)C5(CC5)C4)c3[nH]2)N1C [I-108]

Result:
1. 7.00 to 11.00
2. 7.00 to 11.00
